ASSAYED_TARGET: cathepsin D (Homo sapiens, UniProt P07339)
Sequence (P07339 65-412): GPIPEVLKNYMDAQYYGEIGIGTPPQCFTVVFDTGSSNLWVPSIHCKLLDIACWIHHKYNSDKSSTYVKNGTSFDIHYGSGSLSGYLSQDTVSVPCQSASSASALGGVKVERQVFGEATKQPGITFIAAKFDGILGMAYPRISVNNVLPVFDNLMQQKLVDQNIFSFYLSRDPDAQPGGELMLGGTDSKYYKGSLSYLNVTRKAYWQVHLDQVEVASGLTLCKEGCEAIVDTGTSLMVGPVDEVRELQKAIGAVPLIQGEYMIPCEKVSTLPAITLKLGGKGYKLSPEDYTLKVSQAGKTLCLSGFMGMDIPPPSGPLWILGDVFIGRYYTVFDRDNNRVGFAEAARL
PROCEDURE_DETAILS: Cathepsin D cuvette assay for IC50 and inhibition constants (Ki)
Format: biochemical
CONDITION_PARAMETERS: Table V second generation; conditions as Table IV; Ki ≈ IC50 − Et/2
pKi: −log10 of the molar value.
MEASURED_ENDPOINT: pKi

Use the examples below as a reference point.
- Cc1ccc(CCN(C[C@H](O)[C@H](Cc2ccccc2)NC(=O)COc2cc(Cl)c(Cl)cc2Cl)C(=O)CCN2C(=O)c3ccccc3C2=O)cc1: 6.65
- O=C(COc1cccc(Cl)c1)N[C@@H](Cc1ccccc1)[C@@H](O)CN(CCc1ccc2c(c1)OCO2)C(=O)CCN1C(=O)c2ccccc2C1=O: 7.82
- O=C(COc1ccc(Cl)c(Cl)c1)N[C@@H](Cc1ccccc1)[C@@H](O)CN(CCc1ccc2c(c1)OCO2)C(=O)CCN1C(=O)c2ccccc2C1=O: 7.82

P: O=C(COc1ccc(Cl)c(Cl)c1)N[C@@H](Cc1ccccc1)[C@@H](O)CN(CCc1ccc(Cl)cc1Cl)C(=O)CCN1C(=O)c2ccccc2C1=O
Q: COc1cc(Br)c(C(=O)N[C@@H](Cc2ccccc2)[C@@H](O)CN(CCc2ccc3c(c2)OCO3)C(=O)CCN2C(=O)c3ccccc3C2=O)cc1OC
R: O=C(COc1ccc(Cl)cc1Cl)N[C@@H](Cc1ccccc1)[C@@H](O)CN(CCc1ccc2c(c1)OCO2)C(=O)CCN1C(=O)c2ccccc2C1=O
**Query** Ordering: ascending pKi. Write the labels, ordered according to the request.
**Result** Q, P, R
(Q: 7.23, P: 7.85, R: 8.05)
